System: 885724-159-R-J1-PDC complex spheroid viability;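 also: spheroids exposed to agents for seven days before readout; percent of vehicle control viability where 100% = DMSO wells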
Experiment Summary: Anticancer human tumor 885724-159-R-J1-PDC patient-derived pancreatic adenocarcinoma cell line growth inhibition [GQUAD]
Assay Context: second compound 0.0316 µM; first compound 3.16 µM; stronger effect = lower value
Each record here notes measured viability, T/C.
Give the number; % is assumed, so skip it.

Worked set:
# Molecule, Output Unit, Measured
data = [
    ("CC1COCCN1c1cc(C2(S(C)(=N)=O)CC2)nc(-c2ccnc3[nH]ccc23)n1 (stereo not drawn) + Cc1cnc(CNC(=O)c2c(=O)c3ccc(N4CCCN(C)CC4)nc3n3c2sc2ccccc23)cn1", "%", 81.5),
    ("CC(=O)O[C@H]1C(=O)[C@@]2(C)[C@H]([C@H](OC(=O)c3ccccc3)[C@]3(O)C[C@H](OC(=O)[C@H](O)[C@@H](NC(=O)c4ccccc4)c4ccccc4)C(C)=C1C3(C)C)[C@]1(OC(C)=O)CO[C@@H]1C[C@@H]2O + Cc1[nH]c2ccc(F)cc2c1-c1nc2c3cccnc3c3ncccc3c2[nH]1", "%", 81.6),
    ("CC1COCCN1c1cc(C2(O)CC3CCC(C2)O3)c2cnn(-c3ccn[nH]3)c2n1 (stereo not drawn) + Cc1[nH]c2ccc(F)cc2c1-c1nc2c3cccnc3c3ncccc3c2[nH]1", "%", 46),
    ("CC1COCCN1c1cc(C2(O)CC3CCC(C2)O3)c2cnn(-c3ccn[nH]3)c2n1 (stereo not drawn) + CN(C)c1ccc(Nc2c3ccc(NC(=O)CCN4CCCC4)cc3nc3cc(NC(=O)CCN4CCCC4)ccc23)cc1", "%", 41.6),
    ("C#Cc1c(F)ccc2cc(O)cc(-c3ncc4c(N5CC6CCC(C5)N6)nc(OCC56CCCN5CC(F)C6)nc4c3F)c12 (stereo not drawn) + CN(C)c1ccc(Nc2c3ccc(NC(=O)CCN4CCCC4)cc3nc3cc(NC(=O)CCN4CCCC4)ccc23)cc1", "%", 58.8),
]

Exam item: Report viability, T/C for COc1ccc([C@@H](O)c2cc(-c3ncnc4cc(N5CCOCC5)ccc34)c(F)cc2Cl)nn1 + Cc1[nH]c2ccc(F)cc2c1-c1nc2c3cccnc3c3ncccc3c2[nH]1 please.
Marked response: 68.5

Exam item: Report viability, T/C for CC(C)n1c(=O)n(C)c2cnc3cc(F)c(-c4ccc(OCCCN5CCCCC5)nc4)cc3c21 + Cc1[nH]c2ccc(F)cc2c1-c1nc2c3cccnc3c3ncccc3c2[nH]1 please.
Marked response: 84.6

Exam item: Report viability, T/C for COc1ncnc(C2CC2)c1-c1ncc2cnn(Cc3ccc(-c4nc(C(F)(F)F)cn4C(C)C)cc3)c2n1 + Cc1cnc(CNC(=O)c2c(=O)c3ccc(N4CCCN(C)CC4)nc3n3c2sc2ccccc23)cn1 please.
Marked response: 115
